Taken from the supplement of paper PMC11246515.

assay: total protein half-life in vivo (active degradation + dilution); higher = more stable protein; conditions: E. coli NCM3722 delta-clpP; growth: N-lim chemostat; doubling time 6 h
observable: total protein half-life in vivo (h)
Note: unit h is implicit; provide only the numeric part.

MRHIFQRLLPRRLWLAGLPCLALLGCVQNHNKPAIDTPAEEKIPVYQLADYLSTECSDIWALQGKSTETNPLYWLRAMDCADRLMPAQSRQQARQYDDGSWQNTFKQGILLADAKITPYERRQLVARIEALSTEIPAQVRPLYQLWRDGQALQLQLAEERQRYSKLQQSSDSELDTLRQQHHVLQQQLELTTRKLENLTDIERQLSTRKPAGNFSPDTPHESEKPAPSTHEVTPDEP [P0AD44]    6.44
MKRASLLTLTLIGAFSAIQAAWAVDYPLPPTGSRLVGQNQTYTVQEGDKNLQAIARRFDTAAMLILEANNTIAPVPKPGTTITIPSQLLLPDAPRQGIIVNLAELRLYYYPPGENIVQVYPIGIGLQGLETPVMETRVGQKIPNPTWTPTAGIRQRSLERGIKLPPVVPAGPNNPLGRYALRLAHGNGEYLIHGTSAPDSVGLRVSSGCIRMNAPDIKALFSSVRTGTPVKVINEPVKYSVEPNGMRYVEVHRPLSAEEQQNVQTMPYTLPAGFTQFKDNKAVDQKLVDKALYRRAGYPVSVSSGATPAASNAPSVESAQNGEPEQGNMLRVTQ    5.31
MSFFISDAVAATGAPAQGSPMSLILMLVVFGLIFYFMILRPQQKRTKEHKKLMDSIAKGDEVLTNGGLVGRVTKVAENGYIAIALNDTTEVVIKRDFVAAVLPKGTMKAL [P0ADZ7]    6.69
MKYDTSELCDIYQEDVNVVEPLFSNFGGRASFGGQIITVKCFEDNGLLYDLLEQNGRGRVLVVDGGGSVRRALVDAELARLAVQNEWEGLVIYGAVRQVDDLEELDIGIQAMAAIPVGAAGEGIGESDVRVNFGGVTFFSGDHLYADNTGIILSEDPLDIE [P0A8R0]    5.11
MAHIVTLNTPSREDWLTQLADVVTDPDELLRLLNIDAEEKLLAGRSAKKLFALRVPRSFIDRMEKGNPDDPLLRQVLTSQDEFVIAPGFSTDPLEEQHSVVPGLLHKYHNRALLLVKGGCAVNCRYCFRRHFPYAENQGNKRNWQTALEYVAAHPELDEMIFSGGDPLMAKDHELDWLLTQLEAIPHIKRLRIHSRLPIVIPARITEALVECFARSTLQILLVNHINHANEVDETFRQAMAKLRRVGVTLLNQSVLLRDVNDNAQTLANLSNALFDAGVMPYYLHVLDKVQGAAHFMVSDDEARQIMRELLTLVSGYLVPKLAREIGGEPSKTPLDLQLRQQ    2.63

Lookup result for MENIMNNPVIGVVMCRNRLKGHATQTLQEKYLNAIIHAGGLPIALPHALAEPSLLEQLLPKLDGIYLPGSPSNVQPHLYGENGDEPDADPGRDLLSMAIINAALERRIPIFAICRGLQELVVATGGSLHRKLCEQPELLEHREDPELPVEQQYAPSHEVQVEEGGLLSALLPECSNFWVNSLHGQGAKVVSPRLRVEARSPDGLVEAVSVINHPFALGVQWHPEWNSSEYALSRILFEGFITACQHHIAEKQRL ; measured total protein half-life in vivo: 2.93

---

assay: total protein half-life in vivo (active degradation + dilution); higher = more stable protein; conditions: wild type E. coli NCM3722; growth: P-lim chemostat; doubling time 12 h
I would appreciate it if you labelled entries t when total protein half-life in vivo is 10 h or higher, otherwise f.

MKCKRLNEVIELLQPAWQKEPDLNLLQFLQKLAKESGFDGELADLTDDILIYHLKMRDSAKDAVIPGLQKDYEEDFKTALLRARGVIKE [P0ADP9]    t
MNIKGKALLAGCIALAFSNMALAEDIKVAVVGAMSGPVAQYGDQEFTGAEQAVADINAKGGIKGNKLQIVKYDDACDPKQAVAVANKVVNDGIKYVIGHLCSSSTQPASDIYEDEGILMITPAATAPELTARGYQLILRTTGLDSDQGPTAAKYILEKVKPQRIAIVHDKQQYGEGLARAVQDGLKKGNANVVFFDGITAGEKDFSTLVARLKKENIDFVYYGGYHPEMGQILRQARAAGLKTQFMGPEGVANVSLSNIAGESAEGLLVTKPKNYDQVPANKPIVDAIKAKKQDPSGAFVWTTYAALQSLQAGLNQSDDPAEIAKYLKANSVDTVMGPLTWDEKGDLKGFEFGVFDWHANGTATDAK [P0AD96]    t
MTTYDRNRNAITTGSRVMVSGTGHTGKILSIDTEGLTAEQIRRGKTVVVEGCEEKLAPLDLIRLGMN    f
MQIIFGEKCVSLLRLFFAAVLMLWCAQTAAYSGQCHTTQGNPYIGVNFGVKTLEEEANTAGVVKDKFYQWNESNDYYVSCDCDKDNVRSGRWAFAADSPLVYLGDNWYKINDYLAAKVLLQVKGSSPTAVPFENVGTGGDTRWHICDPGGQRLGGQGASGNSGSFSLKILQPFVGSVVIPPMALARLYECYNIPAGDSCTTTGTPVLVYYLSGTINSLGSCSVNAGETIEVDLGDVFAANFRVVGHKPLGARTAELAIPVRCNTGNAGLVNVNLSLTATTDPSYPQAIKTSRPGVGVVVTDSQNNIISPAGGTLPLSIPDDADSIARMNVYPVSTTGVPPETGRFEATATVRINFD    t
MANLSGYNFAYLDEQTKRMIRRAILKAVAIPGYQVPFGGREMPMPYGWGTGGIQLTASVIGESDVLKVIDQGADDTTNAVSIRNFFKRVTGVNTTERTDDATVIQTRHRIPETPLTEDQIIIFQVPIPEPLRFIEPRETETRTMHALEEYGVMQVKLYEDIARFGHIATTYAYPVKVNGRYVMDPSPIPKFDNPKMDMMPALQLFGAGREKRIYAVPPFTRVESLDFDDHPFTVQQWDEPCAICGSTHSYLDEVVLDDAGNRMFVCSDTDYCRQQSEAKNQ    f

INPUT: State whether the measured total protein half-life in vivo reaches 10 h, counting equality as reaching it, for MRLLPLVAAATAAFLVVACSSPTPPRGVTVVNNFDAKRYLGTWYEIARFDHRFERGLEKVTATYSLRDDGGLNVINKGYNPDRGMWQQSEGKAYFTGAPTRAALKVSFFGPFYGGYNVIALDREYRHALVCGPDRDYLWILSRTPTISDEVKQEMLAVATREGFDVSKFIWVQQPGS [P0A901]
OUTPUT: t

INPUT: API: above_or_equal(metric=total protein half-life in vivo, cutoff=10 h) for item MSNITIYHNPACGTSRNTLEMIRNSGTEPTIIHYLETPPTRDELVKLIADMGISVRALLRKNVEPYEELGLAEDKFTDDRLIDFMLQHPILINRPIVVTPLGTRLCRPSEVVLEILPDAQKGAFSKEDGEKVVDEAGKRLK [P0AB96]
OUTPUT: f

INPUT: Is total protein half-life in vivo for MTKPYVRLDKNDAAVLLVDHQAGLLSLVRDIEPDKFKNNVLALGDLAKYFNLPTILTTSFETGPNGPLVPELKAQFPDTPYIARPGNINAWDNEDFVKAVKATGKKQLIIAGVVTEVCVAFPALSAIEEGFDVFVVTDASGTFNEITRHSAWDRLSQAGAQLMTWFGVACELHRDWRNDIEGLATLFSNHIPDYRNLMTSYDTLTKQK at or above 10 h?
OUTPUT: t

INPUT: Could you please find out whether MKITLSKRIGLLAILLPCALALSTTVHAETNKLVIESGDSAQSRQHAAMEKEQWNDTRNLRQKVNKRTEKEWDKADAAFDNRDKCEQSANINAYWEPNTLRCLDRRTGRVITP has total protein half-life in vivo that meets 10 h or exceeds it?
OUTPUT: t

INPUT: Confirm if total protein half-life in vivo reported for the sequence MKKLTVAALAVTTLLSGSAFAHEAGEFFMRAGSATVRPTEGAGGTLGSLGGFSVTNNTQLGLTFTYMATDNIGVELLAATPFRHKIGTRATGDIATVHHLPPTLMAQWYFGDASSKFRPYVGAGINYTTFFDNGFNDHGKEAGLSDLSLKDSWGAAGQVGVDYLINRDWLVNMSVWYMDIDTTANYKLGGAQQHDSVRLDPWVFMFSAGYRF [P0A915] is 10 h or above.
OUTPUT: t

INPUT: Check this sequence for total protein half-life in vivo at or above 10 h: MSEALLNAGRQTLMLELQEASRLPERLGDDFVRAANIILHCEGKVVVSGIGKSGHIGKKIAATLASTGTPAFFVHPAEALHGDLGMIESRDVMLFISYSGGAKELDLIIPRLEDKSIALLAMTGKPTSPLGLAAKAVLDISVEREACPMHLAPTSSTVNTLMMGDALAMAVMQARGFNEEDFARSHPAGALGARLLNKVHHLMRRDDAIPQVALTASVMDAMLELSRTGLGLVAVCDAQQQVQGVFTDGDLRRWLVGGGALTTPVNEAMTVGGTTLQSQSRAIDAKEILMKRKITAAPVVDENGKLTGAINLQDFYQAGII
OUTPUT: t

INPUT: Please indicate if the recorded total protein half-life in vivo for MSKVKSITRESWILSTFPEWGSWLNEEIEQEQVAPGTFAMWWLGCTGIWLKSEGGTNVCVDFWCGTGKQSHGNPLMKQGHQMQRMAGVKKLQPNLRTTPFVLDPFAIRQIDAVLATHDHNDHIDVNVAAAVMQNCADDVPFIGPKTCVDLWIGWGVPKERCIVVKPGDVVKVKDIEIHALDAFDRTALITLPADQKAAGVLPDGMDDRAVNYLFKTPGGSLYHSGDSHYSNYYAKHGNEHQIDVALGSYGENPRGITDKMTSADMLRMGEALNAKVVIPFHHDIWSNFQADPQEIRVLWEMKKDRLKYGFKPFIWQVGGKFTWPLDKDNFEYHYPRGFDDCFTIEPDLPFKSFL meets or exceeds 10 h.
OUTPUT: f
